# studySystem: Phosphodiesterase 4 (Homo sapiens, UniProt P27815+Q08499+Q07343+Q08493)
# experimentDescription: Inhibition of PDE4 activity in human PBMC assessed as inhibition of LPS-induced TNFalpha release after 18 hrs by ELISA
Measured IC50 values are reported for all entries that follow.
measurementName: IC50

chemicalStructure	result
COc1ccc(C(=O)O[C@@H](Cc2c(Cl)c[n+]([O-])cc2Cl)c2ccc(OC(F)F)c(OCC3CC3)c2)cc1O	0.75 nM
O=C(O[C@@H](Cc1c(Cl)c[n+]([O-])cc1Cl)c1ccc(OC(F)F)c(OCC2CC2)c1)c1ccc(NS(=O)(=O)C2CC2)c(OCC2CC2)c1	0.34 nM
COc1ccc(C(=O)O[C@@H](Cc2c(Cl)c[n+]([O-])cc2Cl)c2ccc(OC(F)F)c(OCC3CC3)c2)cc1Oc1ccccc1	1.36 nM
O=C(O[C@@H](Cc1c(Cl)c[n+]([O-])cc1Cl)c1ccc(OC(F)F)c(OCC2CC2)c1)c1ccc(O)c(OCC2CC2)c1	0.85 nM
